System: NKM-1 (Acute Myeloid Leukemia);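 note: after 72 h of two-drug dosing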
Experimental Protocol: Bliss excess, mean over the matrix (fraction); higher = more synergy
Measured Bliss excess, listed per entry.
# answer = number (no unit)

In the examples that follow, each entry is paired with its recorded Bliss excess.
CN(CCO)CC[C@H](CSc1ccccc1)Nc1ccc(S(=O)(=O)NC(=O)c2ccc(N3CCC([C@@H](O)c4ccccc4-c4ccc(Cl)cc4)CC3)cc2)cc1S(=O)(=O)C(F)(F)F [AZD4320] + CN(C)CCCOc1ccc(-c2ccc3ncc4c(c3c2)n(C2CCOCC2)c(=O)n4C)cn1 [AZD0156] (first compound max 1 µM, 7x7, partner max 1 µM)    -0.0871
Cc1cc2ncnn2cc1Nc1ncc2c(n1)n(C1CCOCC1)c(=O)n2C [AZD7648] + COc1cc([C@@H]2c3cc4c(cc3[C@@H](O[C@@H]3O[C@@H]5CO[C@@H](C)O[C@H]5[C@H](O)[C@H]3O)[C@H]3COC(=O)[C@H]23)OCO4)cc(OC)c1O [Etoposide] (first compound max 10 µM, 7x7, partner max 10 µM)    0.106
CN(CCO)CC[C@H](CSc1ccccc1)Nc1ccc(S(=O)(=O)NC(=O)c2ccc(N3CCC([C@@H](O)c4ccccc4-c4ccc(Cl)cc4)CC3)cc2)cc1S(=O)(=O)C(F)(F)F [AZD4320] + C=CCn1c(=O)c2cnc(Nc3ccc(N4CCN(C)CC4)cc3)nc2n1-c1cccc(C(C)(C)O)n1 [AZD1775] (first compound max 1 µM, partner max 1 µM)    0.035
NC1(C(=O)N[C@@H](CCO)c2ccc(Cl)cc2)CCN(c2ncnc3[nH]ccc23)CC1 [Capivasertib] + C[C@@H]1COCCN1C2=NC(=NC(=C2)C3(CC3)[S@](=N)(=O)C)C4=C5C=CNC5=NC=C4 [AZD6738] (first compound max 10 µM, 7x7, partner max 10 µM)    -0.0479
COc1nnc2ccc(N3CCC(c4ccc(OCCN5CCN(C)C(=O)[C@H]5C)cc4)CC3)nn12 [AZD5153] + Cc1c2c(nn1C)CSCc1cc(n(C)n1)CSc1cc(c3ccccc3c1)OCCCc1c(C(=O)O)n(C)c3c-2c(Cl)ccc13 [AZD5991] (first compound max 1 µM, 7x7, partner max 1 µM)    -0.0491

Now, please, on to the next molecule.
Give the measured Bliss excess of CN(CCO)CC[C@H](CSc1ccccc1)Nc1ccc(S(=O)(=O)NC(=O)c2ccc(N3CCC([C@@H](O)c4ccccc4-c4ccc(Cl)cc4)CC3)cc2)cc1S(=O)(=O)C(F)(F)F [AZD4320] + CS(=O)(=O)CCNCc1ccc(-c2ccc3ncnc(Nc4ccc(OCc5cccc(F)c5)c(Cl)c4)c3c2)o1 [Lapatinib] (first compound max 1 µM, 7x7, partner max 10 µM) .
0.0418

---

Test system: COLO-684 (Endometrial Carcinoma)
Experimental Protocol: combination Emax (second highest fraction inhibited in the dose matrix, 72 h); higher = more inhibition; extreme values may be limits of the assay
Assay Metric: combination Emax
Please respond with just the number, no unit label.

Completed entries (count: 2):
Cc1nc(-c2cn3c(n2)-c2ccc(-c4cnn(C(C)(C)C(N)=O)c4)cc2OCC3)n(C(C)C)n1 [Taselisib] + O=C(Nc1ccc2[nH]nc(-c3ccncc3)c2c1)[C@@H]1CCN(CC(=O)N2CCN(c3ccc(-c4ncccn4)cc3)CC2)C1 [SCH772984] (first compound max 10 µM, 7x7, partner max 5 µM)    0.63
CN(CCO)CC[C@H](CSc1ccccc1)Nc1ccc(S(=O)(=O)NC(=O)c2ccc(N3CCC([C@@H](O)c4ccccc4-c4ccc(Cl)cc4)CC3)cc2)cc1S(=O)(=O)C(F)(F)F [AZD4320] + C[C@@H](Nc1cc(F)cc(F)c1)c1cc(C(=O)N(C)C)cc2c(=O)cc(N3CCOCC3)oc12 [AZD8186] (first compound max 1 µM, 7x7, partner max 3 µM)    0.396

So what does the record say about combination Emax for NC1(C(=O)N[C@@H](CCO)c2ccc(Cl)cc2)CCN(c2ncnc3[nH]ccc23)CC1 [Capivasertib] + Cn1cnc2c(F)c(Nc3ccc(Br)cc3Cl)c(C(=O)NOCCO)cc21 [Selumetinib] (first compound max 10 µM, 7x7, partner max 10 µM) ?
0.63
